Tested on: THP-1 Lucia ISG cells
Test: ISG-LUC activation assay (ISRE-luciferase assay)
Assay type: cell-based
Conditions: Homo sapiens, THP1-Lucia ISG; THP-1 Lucia ISG reporter cells, 24 hours; score based upon potency and efficacy relative to reference compound; read-out: ISG-LUC activation assay score
Below, each of the compounds is paired with its reported EC50 value.

COC(=O)c1cc(F)c(OC)cc1NC(=O)c1cc(N)c2nnnn2n1; < 900 nM
COc1cc(NC(=O)c2cc(N)c3nnnn3n2)c(C(=O)O)cc1F; > 1000 nM

Prompt line: Give its EC50 value. Item: COC(=O)c1nc(Cl)c(Cl)cc1NC(=O)c1cnc2nc[nH]c2c1
Response line: > 20000 nM

Prompt line: Give its EC50 value. Item: COC(=O)c1cc(C#N)c(Cl)cc1NC(=O)c1cc2[nH]cnc2cn1
Response line: > 1000 nM

Prompt line: Give its EC50 value. Item: C#Cc1cc(NC(=O)c2ccn3c(S(C)(=O)=O)nnc3n2)c(C(=O)O)cc1F
Response line: > 20000 nM

Prompt line: Give its EC50 value. Item: C#Cc1cc(NC(=O)c2cc(N)c3nnnn3n2)c(C(=O)O)nc1Cl
Response line: > 1000 nM

Prompt line: Give its EC50 value. Item: O=C1CCn2nc(C(=O)Nc3cc(Cl)c(Cl)cc3C(=O)O)nc2N1
Response line: > 20000 nM

Prompt line: Give its EC50 value. Item: COC(=O)c1cc(F)c(OC)cc1NC(=O)c1ccc2c(ncn2C)n1
Response line: > 1000 nM

Prompt line: Give its EC50 value. Item: CCOC(=O)c1nc(Cl)sc1NC(=O)c1cc(N)c2nnnn2n1
Response line: > 1000 nM
